# System: SARS-CoV-2
# procedure text: SARS-CoV-2 virus inhibition assay (plaque assay)
# Type: cell-based, Severe Acute Respiratory Syndrome Coronavirus 2
# assay setup: SARS-CoV-2 (1×10^3) exposed 1 h at 37° C., then Vero cells; read-out: concentration for 50% reduction of PFU
measurement name: IC50

{"columns": ["substance", "assayed target", "test result"],
 "data": [
  ["SVPTSVYTLGIKILWSAYKHRKTIEKSFNKGFYH [L-PLNC8 β]", "SARS-CoV-2", "900 to 1000 nM"],
  ["SVPTSVYTLGIKILWSAYKHRKTIEKSFNKGFYH, SEQ ID NO:1 [D-PLNC8 β]", "SARS-CoV-2", "1400 nM"]
]}
